GI50 by entry:
test system: COLO 205; test: NCI tumour cell line growth inhibition, 48 h
Calls of active or inactive are those of the source. No stated cut-off is given here; in the data, active = GI50 up to about 1.1 µM and inactive = higher.

In: Tell us which GI50 value is on record for CCCn1c(=O)c(N2CCN(c3ccccc3)CC2)nc2sc3ccccc3c21
Out: > 100 µM (inactive)

In: Please report GI50 for the following compound: O=C(/C=C/C=C/c1ccccc1)CCc1ccccc1
Out: > 100 µM (inactive)

====

tested on: NCI-H226; assay: NCI tumour cell line growth inhibition, 48 h
Active and inactive are the calls of the source. Cut-off read from the data, not from the text of the source: active = GI50 up to about 1.1 µM and inactive = higher.
The entries below come with measured GI50 values attached.

In: Note GI50 for the molecule shown: N=c1oc2ccc3ccccc3c2cc1C(N)=O
Out: 15.3 µM (inactive)

====

system: T47D; assay: NCI tumour cell line growth inhibition, 48 h
Active and inactive are the calls of the source. No stated cut-off is given here; in the data, active = GI50 up to about 1.1 µM and inactive = higher.
endpoint label: GI50

Sample records with GI50:
O=C(O)c1ccc(Cc2ccccc2C(=O)O)cc1 = > 100 µM (inactive)
CCCn1c(=O)c(N2CCN(c3ccccc3)CC2)nc2sc3ccccc3c21 = > 100 µM (inactive)
Nc1nc(N)c2cc(Sc3ccc4nc(N)nc(N)c4c3)ccc2n1 = > 44.2 µM (inactive)

In: Give a short answer stating reported GI50 for CC1(C)C2CCC(=O)C1CC2 (stereo not drawn) .
Out: > 100 µM (inactive)

In: Specify GI50 for COc1ccc(/C=C2/S/C(=N\c3ccccc3)N(NC(=O)Cc3ccccc3)C2=O)c(OC)c1 and stop.
Out: 43.9 µM (inactive)

In: Tell us which GI50 value is on record for CCOC(=O)CCSc1nc2ccc(I)cc2c(=O)n1Cc1ccccc1
Out: 26.9 µM (inactive)

In: Give the reported GI50 for this compound. Cc1ccc2nc(N/N=C/c3cccc(C)n3)cc(C)c2c1
Out: 16 µM (inactive)

In: Item c1ccc2c(c1)SCCCSCCSCCCS2 : provide GI50
Out: > 100 µM (inactive)

====

test system: IGROV-1; test: NCI tumour cell line growth inhibition, 48 h
The source made the active and inactive calls. Cut-off read from the data, not from the text of the source: active = GI50 up to about 1.1 µM and inactive = higher.
Collected GI50 values appear next to each entry.

COc1ccc(Cn2c(=O)c(OS(=O)(=O)C(F)(F)F)c(C)c3cc4ccccc4cc32)cc1 = > 100 µM (inactive)
CCOC(=O)[C@H]1C[C@]23CN(C(=O)OC(C)(C)C)CC[C@H]2CCC2(SCCCS2)[C@@H]3N1C = 49.9 µM (inactive)
CC(C)c1nc(Cl)c(Cl)c(Cl)n1 = 3.08 µM (inactive)
C(=N\N=C1NCCCN1)/c1ccc2ccccc2c1 = 11.7 µM (inactive)
CCCCCCCCCCCCCP(=O)(OC)OC = 19.3 µM (inactive)
O=C1Nc2ccccc2C1(O)Cc1ccccn1 (stereo not drawn) = > 100 µM (inactive)
COc1cc(C2C(C(=O)O)=C(COC(C)=O)Oc3cc4c(cc32)OCO4)cc(OC)c1OC (stereo not drawn) = > 100 µM (inactive)
Nc1ccc(-c2nnc(-c3c(Cl)c(Cl)c(Cl)c(Cl)c3-c3nc4cc(C(=O)c5ccccc5)ccc4[nH]3)o2)cc1 = 28.5 µM (inactive)

In: For IGROV-1, give GI50 of the listed compound: O=C(O)CCC(C(=O)O)N1C(=O)C2C3CCC(C3)C2C1=O (stereo not drawn)
Out: > 100 µM (inactive)

In: Jot down GI50 (IGROV-1) of CN(C)CC1CCCC(CN2CCCCC2)C1=O (stereo not drawn) .
Out: 17 µM (inactive)

====

Below: a set of entries, each annotated with reported GI50.
test system: TK-10; experiment: NCI tumour cell line growth inhibition, 48 h
Active and inactive are the calls of the source. No stated cut-off is given here; in the data, active = GI50 up to about 1.1 µM and inactive = higher.

Cc1cc2c(c(C#N)c1C)NC(=O)C(CC(=O)O)C2=O (configuration not stated) = > 100 µM (inactive)

In: Entry Cn1cc[n+](-c2cc(=O)n(C)c(=O)[n-]2)c1 needs its GI50 filled in; supply it.
Out: 31.8 µM (inactive)

In: Please report GI50 for the following compound: CCCCCCCCCCCCCCCCCCOP1(=O)OCCO1
Out: 30.4 µM (inactive)

====

Below: a set of entries, each annotated with reported GI50.
tested on: NCI-H460; assay: NCI tumour cell line growth inhibition, 48 h
The source made the active and inactive calls. No stated cut-off is given here; in the data, active = GI50 up to about 1.1 µM and inactive = higher.

Here are 2 compounds together with their reported answers.
Cn1cnc([N+](=O)[O-])c1Sc1nnc(-c2cccnc2)n1C = > 85.1 µM (inactive)
CC(=O)OCC1OC(N2C(=O)NC(=O)C3C=C4CCCCC4=CC32)C(OC(C)=O)C1OC(C)=O (stereo unspecified) = > 100 µM (inactive)

In: Would you please give the reported GI50 of O=C(Cn1cc(I)c(C(=O)NCC(O)CO)n1)NCC(O)CO (stereo unspecified) with NCI-H460?
Out: > 100 µM (inactive)

====

test system: OVCAR-5; assay: NCI tumour cell line growth inhibition, 48 h
Active and inactive are the calls of the source. No stated cut-off is given here; in the data, active = GI50 up to about 1.1 µM and inactive = higher.
Could you please pick one outcome from this set? true (1) for active, false (0) for inactive

C/C=C(\NC(=O)C(CCCCN)NC(=O)C(C)NC(=O)C1CSC(C)C(NC(=O)C2CSCC(NC(=O)C(C)NC(=O)C(N)C(C)CC)C(=O)NC(CCCCN)C(=O)NC(Cc3ccccc3)C(=O)NC(CC(C)C)C(=O)N2)C(=O)N2CCCC2C(=O)NCC(=O)N1)C(=O)NCC(=O)NC1CSCC2NC(=O)C(Cc3ccc(O)cc3)NC(=O)C(CSC=CNC2=O)NC(=O)C(CC(N)=O)NC(=O)C(Cc2ccccc2)NC1=O (stereo not given) = false (0)

In: Please let me know the test result on file for CCOC(=O)c1cc(/C=C/C(C)=C/C(=O)OC)n(C)c1C .
Out: false (0)

In: Called result for OCC1OC(NO)C(O)C(O)C1O (stereo not given)
Out: false (0)

In: What outcome does the record of this test show for CN(CCNC(=O)c1cn(C)c2c1ccc1ccccc12)CCNC(=O)c1cn(C)c2c1ccc1ccccc12 ?
Out: false (0)

In: What did this assay record as the result for COC(=O)C(=O)C1(CCC(C)=O)c2ccccc2-c2c(C)ccc(C)c21 (stereo not given) ?
Out: false (0)

In: What did this assay record as the result for COc1cc(C2C(C(=O)O)=C(COC(C)=O)Oc3cc4c(cc32)OCO4)cc(OC)c1OC (stereo not given) ?
Out: false (0)

In: I'd appreciate the recorded outcome for O=[N+]([O-])C1C2C=CC(C2)[C@H]1c1ccccc1Cl (stereo not given in full) from this test.
Out: false (0)

In: Could you kindly confirm the outcome this assay logged for Cc1cc(C)nc(NS(=O)(=O)c2ccc(Nc3c4ccccc4nc4c(C(=O)NCCO)cccc34)cc2)n1 ?
Out: false (0)

====

tested on: A498; assay: NCI tumour cell line growth inhibition, 48 h
The source made the active and inactive calls. Cut-off read from the data, not from the text of the source: active = GI50 up to about 1.1 µM and inactive = higher.
endpoint label: GI50

CCOC(=O)c1cc(/C=C/C(C)=C/C(=O)OC)n(C)c1C = > 100 µM (inactive)

In: Please look at this compound and report its GI50: Nc1cc(N2CCOCC2)nc(=O)n1-c1ccc(Cl)cc1
Out: > 100 µM (inactive)

In: # return recorded GI50 for input C=C1CCC[C@@H](C)C(O)[C@@H]2OC(=O)C(=C)[C@@H]2C[C@@H](OC(C)=O)[C@@]2(C)CC[C@@H]1O2 (some centres undefined)
Out: 9.84 µM (inactive)

In: Supply measured GI50 of CC1C2=C(CCCC2=O)N(c2ccc(Cl)cc2)C2=C1C(=O)CCC2 in your reply.
Out: > 100 µM (inactive)

====

system: HT-29; assay: NCI tumour cell line growth inhibition, 48 h
The source made the active and inactive calls. No stated cut-off is given here; in the data, active = GI50 up to about 1.1 µM and inactive = higher. Where a SMILES comes first, the peptide text is derived from it.
endpoint label: GI50

The cases that follow already have their GI50 on record.
O=C1N/C(=N\N=C\c2ccccc2)C2(CCCCC2)O1 = 78 µM (inactive)
O=C(O)CCC(C(=O)O)N1C(=O)C2C3CCC(C3)C2C1=O (stereo not drawn) = > 100 µM (inactive)
CNC(=O)CNC(=O)C(NC(=O)CNC(=O)C1CCCN1C(=O)C(C)NC(=O)C(NC(C)=O)C(C)C)C(C)C (stereo not drawn) (Ac-VAPGVG-NHMe; configuration not given here) = > 100 µM (inactive)
O=C(NC(Cc1ccc(I)cc1)C(=O)O)c1ccc(I)cc1 (stereo not drawn) = > 100 µM (inactive)
C[Si](C)(C)C#Cc1cc(-c2nc3ccccc3s2)ccc1N = 20.1 µM (inactive)

In: Give the measured GI50 for COc1ccc2c3c1OC1C(F)C=CC4(O)C(C2)NCCC314 (stereo not drawn)
Out: 2.54 µM (inactive)

In: Consider the compound C1=N\CCNCC/N=C\c2ccc(cc2)OCc2cccc(n2)COc2ccc/1cc2 . State its measured GI50.
Out: > 100 µM (inactive)

In: Return reported GI50. Input compound: Cc1c2cnccc2c(C)c2c1c1ccccc1n2CCOC(=O)c1ccccc1
Out: 16.4 µM (inactive)
